Attribution: the supplement of paper PMC3334620

# PBM E-score per entry
# tested_on: Yer184c (UniProt P39961)
# Sequence: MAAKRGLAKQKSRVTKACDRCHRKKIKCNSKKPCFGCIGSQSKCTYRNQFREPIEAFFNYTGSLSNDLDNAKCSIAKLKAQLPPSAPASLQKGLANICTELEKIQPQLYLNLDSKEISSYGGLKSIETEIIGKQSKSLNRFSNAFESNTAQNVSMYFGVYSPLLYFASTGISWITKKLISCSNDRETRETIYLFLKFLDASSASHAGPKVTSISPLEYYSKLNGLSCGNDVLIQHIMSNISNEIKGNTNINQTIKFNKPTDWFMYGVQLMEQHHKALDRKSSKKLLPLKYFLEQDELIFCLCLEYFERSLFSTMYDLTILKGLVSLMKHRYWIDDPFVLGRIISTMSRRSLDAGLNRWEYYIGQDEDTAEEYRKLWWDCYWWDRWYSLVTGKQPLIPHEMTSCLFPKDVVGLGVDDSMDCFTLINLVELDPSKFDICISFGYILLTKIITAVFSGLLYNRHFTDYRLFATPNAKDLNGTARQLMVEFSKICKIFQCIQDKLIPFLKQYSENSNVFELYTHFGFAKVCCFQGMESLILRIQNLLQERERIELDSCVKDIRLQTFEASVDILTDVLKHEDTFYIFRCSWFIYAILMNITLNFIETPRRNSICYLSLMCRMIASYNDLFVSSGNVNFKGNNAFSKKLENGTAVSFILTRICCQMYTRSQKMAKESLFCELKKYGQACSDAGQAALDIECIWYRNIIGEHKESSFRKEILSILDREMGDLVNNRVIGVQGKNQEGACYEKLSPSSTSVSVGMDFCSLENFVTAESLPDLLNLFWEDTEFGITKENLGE
# assay_protocol: PBM E-score (8-mer binding enrichment) (E-score (-0.5 to 0.5)); higher = stronger / more preferred TF binding
# run_conditions: protein concentration: 100 nM; construct: GST-full length
Whole data set: some 33,000 sequences, median “E-score (-0.5 to 0.5)” near -0.016, cut for the highest 2% near 0.3. The full list was thinned out, with the highest values kept by preference.

Here is how some sequences turned out for PBM E-score.
sequence_text=ACTTCGGA result=0.337
sequence_text=GGAGTTGA result=0.0129
sequence_text=CCTTCGGA result=0.327
sequence_text=CCTTCGCA result=-0.0813

Item TACTAGTA has what recorded PBM E-score?
0.338

Item AAAACTGC has what recorded PBM E-score?
0.0178

Item ACGAATAA has what recorded PBM E-score?
0.0316

Item AACGATAA has what recorded PBM E-score?
0.0408

Item CGGGACGC has what recorded PBM E-score?
-0.0137
